The measured values listed here are drawn from patent US20150258107A1.

# EXPERIMENT SUMMARY: Plasma toxicokinetics in dogs, fourteen day repeat dose
# Type: in vivo, dog
# RECORDED CONDITIONS: male, dog, plasma, po, 5 mg/kg, male dogs, Gr 4, 5.0 mg/kg, D14; read-out: AUC0-last
READOUT TYPE: AUC(0-t) (ng·h/mL)
Report only the number, with the unit ng·h/mL understood.

(Q) For the compound CC[C@H]1CC2C[C@H]3c4[nH]c5ccc(O)cc5c4CCN(C2)C13 [noribogaine] , report AUC(0-t).
(A) 6400

---

# EXPERIMENT SUMMARY: Plasma toxicokinetics in dogs, fourteen day repeat dose
# Type: in vivo, dog
# RECORDED CONDITIONS: female, dog, plasma, po, 0.5 mg/kg, female dogs, Gr 2, 0.5 mg/kg, D1
READOUT TYPE: half-life (h)
State the answer as a number, implicitly in h.

(Q) Please report the measured half-life for CC[C@H]1CC2C[C@H]3c4[nH]c5ccc(O)cc5c4CCN(C2)C13
(A) 1

---

# EXPERIMENT SUMMARY: Plasma toxicokinetics in dogs, fourteen day repeat dose
# Format: in vivo, dog
# RECORDED CONDITIONS: male, dog, plasma, po, 5 mg/kg, male dogs, Gr 4, 5.0 mg/kg, D1
READOUT TYPE: Tmax (min)
The figure you give is taken to be in min; do not add the unit.

(Q) Give the reported Tmax for this compound. CC[C@H]1CC2C[C@H]3c4[nH]c5ccc(O)cc5c4CCN(C2)C13
(A) 36

---

# EXPERIMENT SUMMARY: Plasma toxicokinetics in dogs, fourteen day repeat dose
# Assay type: in vivo, dog
# RECORDED CONDITIONS: male, dog, plasma, po, 5 mg/kg, male dogs, Gr 4, 5.0 mg/kg, D14
READOUT TYPE: AUC(0-inf) (µg·h/mL)
// note: answer is a bare numeric in µg·h/mL

(Q) Consider the compound CC[C@H]1CC2C[C@H]3c4[nH]c5ccc(O)cc5c4CCN(C2)C13 [noribogaine] . State its measured AUC(0-inf).
(A) 6.96

---

# EXPERIMENT SUMMARY: Plasma toxicokinetics in dogs, fourteen day repeat dose
# Assay type: in vivo, dog
# RECORDED CONDITIONS: female, dog, plasma, po, 1 mg/kg, female dogs, Gr 3, 1.0 mg/kg, D14
READOUT TYPE: AUC(0-inf) (ng·h/mL)
Report the figure in ng·h/mL without appending any unit label.

(Q) Give the reported AUC(0-inf) for this molecule. CC[C@H]1CC2C[C@H]3c4[nH]c5ccc(O)cc5c4CCN(C2)C13 [noribogaine]
(A) 197

---

# EXPERIMENT SUMMARY: Plasma toxicokinetics in dogs, fourteen day repeat dose
# Type: in vivo, dog
# RECORDED CONDITIONS: female, dog, plasma, po, 1 mg/kg, female dogs, Gr 3, 1.0 mg/kg, D1
READOUT TYPE: half-life (h)
Express the result in h but write the number alone.

(Q) Given the molecule CC[C@H]1CC2C[C@H]3c4[nH]c5ccc(O)cc5c4CCN(C2)C13 , write its reported half-life.
(A) 1.4

---

# EXPERIMENT SUMMARY: Plasma toxicokinetics in dogs, fourteen day repeat dose
# Type: in vivo, dog
# RECORDED CONDITIONS: female, dog, plasma, po, 1 mg/kg, female dogs, Gr 3, 1.0 mg/kg, D1
READOUT TYPE: Tmax (min)
I only need the number, in min, no unit after it.

(Q) Return Tmax (reported value) for this molecule: CC[C@H]1CC2C[C@H]3c4[nH]c5ccc(O)cc5c4CCN(C2)C13
(A) 48
